Origin of the recorded values: paper PMC6173509

Assay System: steroid sulfatase (STS) (Homo sapiens, UniProt P08842)
Test Name: STS inhibition in intact MCF-7 breast cancer cells
Assay type: cell-based
Parameters: endogenous in cells; host or cells: MCF-7 breast cancer cells
Experimental Parameters: MCF7, read-out: % Inhibition of STS Activity in Intact MCF-7 Breast Cancer Cells at 10 μM
Kindly return rule met if reported inhibition at 10 µM is no lower than 90%; return rule not met if it is lower.

## Input Does the reported inhibition at 10 µM for Cc1c(Cl)c(=O)oc2cc(OS(N)(=O)=O)ccc12 [compound 39, 3-Chloro-4-methylcoumarin-7-O-sulfamate] fall at or above the 90% mark?
## Output rule not met

## Input Does the reported inhibition at 10 µM for CCCCCCCCCCc1c(C)c2ccc(OS(N)(=O)=O)cc2oc1=O [compound 33, 3-Decyl-4-methylcoumarin-7-O-sulfamate] fall at or above the 90% mark?
## Output rule met

## Input Does the reported inhibition at 10 µM for CCCCCc1c(C)c2ccc(OS(N)(=O)=O)cc2oc1=O [compound 28, 4-Methyl-3-pentylcoumarin-7-O-sulfamate] fall at or above the 90% mark?
## Output rule met

## Input Does the reported inhibition at 10 µM for CCc1ccc(-c2cc(=O)oc3cc(OS(N)(=O)=O)ccc23)cc1 [compound 25, 4-(4-Ethylphenyl)coumarin-7-O-sulfamate] fall at or above the 90% mark?
## Output rule not met

## Input Does the reported inhibition at 10 µM for CCCCCc1cc(=O)oc2cc(OS(N)(=O)=O)ccc12 [compound 10, 4-Pentylcoumarin-7-O-sulfamate] fall at or above the 90% mark?
## Output rule met

## Input Does the reported inhibition at 10 µM for CCCCCCCCc1c(C)c2ccc(OS(N)(=O)=O)cc2oc1=O [compound 31, 4-Methyl-3-octylcoumarin-7-O-sulfamate] fall at or above the 90% mark?
## Output rule met

###

Assay System: steroid sulfatase (STS) (Homo sapiens)
Sequence (P08842 22-583): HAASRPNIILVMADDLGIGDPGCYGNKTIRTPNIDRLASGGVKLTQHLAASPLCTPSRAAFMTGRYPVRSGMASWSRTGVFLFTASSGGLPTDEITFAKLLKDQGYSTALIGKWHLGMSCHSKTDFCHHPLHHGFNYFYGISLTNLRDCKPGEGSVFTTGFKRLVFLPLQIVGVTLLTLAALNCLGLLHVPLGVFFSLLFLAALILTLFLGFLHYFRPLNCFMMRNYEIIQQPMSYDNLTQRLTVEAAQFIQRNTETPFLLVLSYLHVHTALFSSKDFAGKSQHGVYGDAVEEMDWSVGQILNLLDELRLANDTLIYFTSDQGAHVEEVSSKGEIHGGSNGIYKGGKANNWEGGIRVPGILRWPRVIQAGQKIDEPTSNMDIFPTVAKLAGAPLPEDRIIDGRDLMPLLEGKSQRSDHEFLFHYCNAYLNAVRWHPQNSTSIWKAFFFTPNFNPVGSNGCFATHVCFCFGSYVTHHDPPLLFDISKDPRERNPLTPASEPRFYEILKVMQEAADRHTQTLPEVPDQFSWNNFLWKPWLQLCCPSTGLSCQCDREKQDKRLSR
Test Name: STS inhibition in placental microsomes
Type: biochemical
Design: a placental microsomal preparation from a sulfatase-positive human placenta from a normal term pregnancy; from tissue; host or cells: human placenta (microsomal preparation)
Experimental Parameters: 10 μM inhibitor; 20 μM E1S
Kindly return Fulfilled if reported inhibition at 10 µM is no lower than 90%; return Not fulfilled if it is lower.

## Input Does the reported inhibition at 10 µM for CC(C)c1cc(=O)oc2cc(OS(N)(=O)=O)ccc12 [compound 19, 4-(Prop-2-yl)coumarin-7-O-sulfamate] fall at or above the 90% mark?
## Output Fulfilled

## Input Does the reported inhibition at 10 µM for CCc1ccc(-c2cc(=O)oc3cc(OS(N)(=O)=O)ccc23)cc1 [compound 25, 4-(4-Ethylphenyl)coumarin-7-O-sulfamate] fall at or above the 90% mark?
## Output Not fulfilled

## Input Does the reported inhibition at 10 µM for CCCCCCCCCc1c(C)c2ccc(OS(N)(=O)=O)cc2oc1=O [compound 32, 4-Methyl-3-nonylcoumarin-7-O-sulfamate] fall at or above the 90% mark?
## Output Fulfilled

## Input Does the reported inhibition at 10 µM for NS(=O)(=O)Oc1ccc2c(C3CCCCC3)cc(=O)oc2c1 [compound 26, 4-Cyclohexylcoumarin-7-O-sulfamate] fall at or above the 90% mark?
## Output Fulfilled

## Input Does the reported inhibition at 10 µM for CCCCCc1c(C)c2ccc(OS(N)(=O)=O)cc2oc1=O [compound 28, 4-Methyl-3-pentylcoumarin-7-O-sulfamate] fall at or above the 90% mark?
## Output Fulfilled

## Input Does the reported inhibition at 10 µM for CCCCCc1cc(=O)oc2cc(OS(N)(=O)=O)ccc12 [compound 10, 4-Pentylcoumarin-7-O-sulfamate] fall at or above the 90% mark?
## Output Fulfilled
